- method notes: in vitro
- conditions: human, microsomes
readout: half-life (min)

>  <compound>
Cc1ncc2n1-c1ccc(Cl)cc1C(c1ccccc1F)=NC2 [Midazolam]

>  <units of measure>
min

>  <val>
12.7

$$$$

###

- method notes: in vitro
- conditions: human, microsomes
readout: half-life at 1 μM (h)

>  <mol>
N#Cc1ccc(COc2ccc(C#Cc3ccc(C(F)(F)[C@](O)(Cn4cnnn4)c4ccc(F)cc4F)nc3)cc2)cc1

>  <readout>
half-life at 1 μM

>  <val>
2.33

$$$$
